Data provenance is patent US11345710B2.

# TESTED_TARGET: Wee1 kinase (h) (Homo sapiens)
# PROTOCOL_DETAILS: Wee1 kinase (h) detection method, [γ-33P]-ATP filter assay
# Type: biochemical
# CONDITION_SUMMARY: C 0.01 μm; 10 μM ATP; 40 minutes at room temperature
Examples of compounds with documented Inh. (%) of Wee1 kinase follow.
# unit: % | format: bare number

Some solved cases for reference:
> print(dat)
                                   compound        measured.property  units.symbol  reported.measurement
1  Cc1cc(Nc2ncc3c(=O)n(-c4c(Cl)cccc4Cl)n4ccnc4c3n2)cc(F)c1N1CCN(C)CC1 [Example 28]  Inh. (%) of Wee1 kinase             %                    15
2  Cc1cc(Nc2ncc3c(=O)n(-c4c(F)cccc4Cl)n4ccnc4c3n2)ccc1N1CCN(C)CC1 [Example 9]  Inh. (%) of Wee1 kinase             %                    14
3  Cc1cc(Nc2ncc3c(=O)n(-c4c(Cl)cccc4Cl)n4ccnc4c3n2)ccc1N1C[C@@H](C)N(C(C)C)[C@@H](C)C1 [Example 34]  Inh. (%) of Wee1 kinase             %                    21
4  Cc1cc(Nc2ncc3c(=O)n(-c4c(F)cccc4Cl)n4ccnc4c3n2)cc(F)c1N1CCC(N(C)C)CC1 [Example 25]  Inh. (%) of Wee1 kinase             %                    10
5  CN(C)C1CCN(c2ccc(Nc3ncc4c(=O)n(-c5c(Cl)cccc5Cl)n5ccnc5c4n3)cc2Cl)CC1 [Example 35]  Inh. (%) of Wee1 kinase             %                     4
6  C=CCn1c(=O)c2cnc(Nc3ccc(N4CCN(C)CC4)cc3)nc2n1-c1cccc(C(C)(C)O)n1 [AZD1775]  Inh. (%) of Wee1 kinase             %                    28
7  Cc1cc(Nc2ncc3c(=O)n(-c4c(Cl)cccc4Cl)n4ccnc4c3n2)ccc1N1CCNCC1 [Example 26]  Inh. (%) of Wee1 kinase             %                    27
8  Cc1cc(Nc2ncc3c(=O)n(-c4c(Cl)cccc4Cl)n4ccnc4c3n2)cc(C)c1N1CCN(C)CC1 [Example 4]  Inh. (%) of Wee1 kinase             %                    16

Lookup: Please give the measured Inh. (%) of Wee1 kinase for this compound: CCc1cn2c(n1)c1nc(Nc3ccc(N4CCC(N(C)C)CC4)c(C)c3)ncc1c(=O)n2-c1c(Cl)cccc1Cl [Example 61]
Found: 12

Lookup: What does the record list as Inh. (%) of Wee1 kinase for Cc1cn2c(n1)c1nc(Nc3ccc(N4CCC(N(C)C)CC4)c(C)c3)ncc1c(=O)n2-c1c(Cl)cccc1Cl [Example 58] ?
Found: 9

Lookup: Can you look up the measured Inh. (%) of Wee1 kinase of Cc1cc(Nc2ncc3c(=O)n(-c4c(Cl)cccc4Cl)n4ccnc4c3n2)cc(Cl)c1N1CCN(C)CC1 [Example 29] for me?
Found: 21

Lookup: Quick one: Inh. (%) of Wee1 kinase of Cc1cn2c(n1)c1nc(Nc3cc(C)c(N4CCC(N(C)C)CC4)c(F)c3)ncc1c(=O)n2-c1c(Cl)cccc1Cl [Example 59] ?
Found: 7

Lookup: # get_value(readout='Inh. (%) of Wee1 kinase', item= Cc1cc(Nc2ncc3c(=O)n(-c4c(Cl)cccc4Cl)n4cc(C(C)C)nc4c3n2)ccc1N1CCC(N(C)C)CC1 [Example 62] )
Found: 7

Lookup: Quick one: Inh. (%) of Wee1 kinase of CN1CCN(c2ccc(Nc3ncc4c(=O)n(-c5c(Cl)cccc5Cl)n5ccnc5c4n3)cc2Cl)CC1 [Example 27] ?
Found: 17

Lookup: Request the reported Inh. (%) of Wee1 kinase associated with Cc1cccc(Cl)c1-n1c(=O)c2cnc(Nc3ccc(N4CCN(C)CC4)c(Cl)c3)nc2c2nccn21 [Example 53]
Found: 12

Lookup: I am curious: what Inh. (%) of Wee1 kinase value has been reported for Cc1cc(Nc2ncc3c(=O)n(-c4c(Cl)cccc4Cl)n4ccnc4c3n2)cc2c1C(C)(C)CN(C)C2 [Example 43] ?
Found: 9

====

# TESTED_TARGET: Wee1 kinase (h) (Homo sapiens)
# PROTOCOL_DETAILS: Wee1 kinase (h) detection method, [γ-33P]-ATP filter assay
# Format: biochemical
# CONDITION_SUMMARY: C 0.1 μm; 10 μM ATP; 40 minutes at room temperature
MEASURED_PROPERTY: Inh. (%) of Wee1 kinase
Write it as a number; the unit % goes unstated.

Please review the entries below; each comes with its answer.
> print(dat)
                                 mol.smiles  reported.measurement
1  Cc1cc(Nc2ncc3c(=O)n(-c4c(C)cccc4Cl)n4ccnc4c3n2)ccc1N1CCN(C)CC1                    73
2  Cc1cc(Nc2ncc3c(=O)n(-c4c(Cl)cccc4Cl)n4ccnc4c3n2)cc(C)c1N1CCN(C)CC1                    73
3  CN1CCN(c2ccc(Nc3ncc4c(=O)n(-c5c(Cl)cccc5Cl)n5ccnc5c4n3)cc2Cl)CC1                    76

Please turn your attention to the following entry.
Lookup: What Inh. (%) of Wee1 kinase value was documented for this compound, Cc1cc(Nc2ncc3c(=O)n(-c4c(C)cccc4Cl)n4ccnc4c3n2)cc(Cl)c1N1CCN(C)CC1 ?
Found: 46

====

# TESTED_TARGET: Wee1 kinase (h) (Homo sapiens, UniProt P30291)
# Sequence (P30291 whole entry): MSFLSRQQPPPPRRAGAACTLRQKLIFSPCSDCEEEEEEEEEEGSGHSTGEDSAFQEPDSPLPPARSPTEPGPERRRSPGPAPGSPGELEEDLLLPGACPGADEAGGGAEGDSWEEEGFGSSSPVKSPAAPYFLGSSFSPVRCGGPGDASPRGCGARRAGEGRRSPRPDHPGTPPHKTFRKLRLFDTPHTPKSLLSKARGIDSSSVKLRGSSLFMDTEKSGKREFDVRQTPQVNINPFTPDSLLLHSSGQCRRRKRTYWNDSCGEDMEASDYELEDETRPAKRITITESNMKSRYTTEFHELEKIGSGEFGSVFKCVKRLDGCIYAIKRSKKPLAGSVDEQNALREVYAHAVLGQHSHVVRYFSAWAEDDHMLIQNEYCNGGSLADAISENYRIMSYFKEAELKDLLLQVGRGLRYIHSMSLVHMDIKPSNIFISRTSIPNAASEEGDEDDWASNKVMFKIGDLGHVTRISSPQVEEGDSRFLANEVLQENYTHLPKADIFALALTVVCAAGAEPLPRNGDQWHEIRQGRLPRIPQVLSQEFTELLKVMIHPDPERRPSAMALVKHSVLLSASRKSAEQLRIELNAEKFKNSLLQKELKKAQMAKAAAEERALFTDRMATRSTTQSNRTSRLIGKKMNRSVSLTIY
# PROTOCOL_DETAILS: Wee1 kinase (h) detection method, [γ-33P]-ATP filter assay
# Format: biochemical
# CONDITION_SUMMARY: C 1 μm; 10 μM ATP; 40 minutes at room temperature
Catalogue of molecules with associated Inh. (%) of Wee1 kinase
// units = %; emit number, no label

> print(dat)
                                   molecule        measured.property  reported.measurement
1  Cc1cc(Nc2ncc3c(=O)n(-c4c(C)cccc4Cl)n4ccnc4c3n2)ccc1N1CCN(C)CC1 [Example 16]  Inh. (%) of Wee1 kinase                    93
2  Cc1cccc(F)c1-n1c(=O)c2cnc(Nc3ccc(N4CCN(C)CC4)c(Cl)c3)nc2c2nccn21 [Example 51]  Inh. (%) of Wee1 kinase                    88
3  Cc1cc(Nc2ncc3c(=O)n(-c4c(Cl)cccc4Br)n4ccnc4c3n2)cc(F)c1N1CCC(N(C)C)CC1 [Example 50]  Inh. (%) of Wee1 kinase                    94
4  Cc1cc(Nc2ncc3c(=O)n(-c4c(C)cccc4Cl)n4ccnc4c3n2)cc(F)c1N1CCN(C)CC1 [Example 54]  Inh. (%) of Wee1 kinase                    91
5  Cc1cc(Nc2ncc3c(=O)n(-c4c(C)cccc4F)n4ccnc4c3n2)cc(C)c1N1CCN(C)CC1 [Example 15]  Inh. (%) of Wee1 kinase                    87

Lookup: Tell me the measured Inh. (%) of Wee1 kinase of Cc1cc(Nc2ncc3c(=O)n(-c4c(F)cccc4Cl)n4ccnc4c3n2)ccc1N1CCN(C)CC1 [Example 9] , please.
Found: 97

Lookup: Returns the measured Inh. (%) of Wee1 kinase for the input molecule. Input: Cc1cc(Nc2ncc3c(=O)n(-c4c(C)cccc4Cl)n4ccnc4c3n2)cc(Cl)c1N1CCN(C)CC1 [Example 55]
Found: 89

Lookup: Give its Inh. (%) of Wee1 kinase value. Item: Cc1cc(Nc2ncc3c(=O)n(-c4c(C)cccc4F)n4ccnc4c3n2)ccc1N1CCN(C)CC1 [Example 14]
Found: 93

Lookup: Inh. (%) of Wee1 kinase for Cc1cc(Nc2ncc3c(=O)n(-c4c(Cl)cccc4Br)n4ccnc4c3n2)ccc1N1CCN(C)CC1 [Example 46] ?
Found: 92

Lookup: # get_value(readout='Inh. (%) of Wee1 kinase', item= Cc1cc(Nc2ncc3c(=O)n(-c4c(Cl)cccc4Br)n4ccnc4c3n2)ccc1N1CCC(N(C)C)CC1 [Example 49] )
Found: 91

====

# Tested on: NCI-H1299 cells
# PROTOCOL_DETAILS: MTT based cell viability assay on NCI-H1299 cells
# CONDITION_SUMMARY: Homo sapiens, 72 h; NCI-H1299 cells, 3 d, MTT; read-out: IC50, growth inhibition on NCI-H1299 cells
MEASURED_PROPERTY: IC50 (nM)
Give the value in nM but do not write nM after it.

Some entries whose results are on file:
> print(dat)
                                 mol.smiles    tested.target  units.symbol  reported.measurement
1  Cc1cc(Nc2ncc3c(=O)n(-c4c(C)cccc4Cl)n4ccnc4c3n2)cc(F)c1N1CCN(C)CC1  NCI-H1299 cells            nM                   419
2  Cc1cn2c(n1)c1nc(Nc3cc(C)c(N4CCC(N(C)C)CC4)c(F)c3)ncc1c(=O)n2-c1c(Cl)cccc1Cl  NCI-H1299 cells            nM                   220
3  CCc1cn2c(n1)c1nc(Nc3ccc(N4CCC(N(C)C)CC4)c(C)c3)ncc1c(=O)n2-c1c(Cl)cccc1Cl  NCI-H1299 cells            nM                   126
4  CN1CCN(c2ccc(Nc3ncc4c(=O)n(-c5c(F)cccc5F)n5ccnc5c4n3)cc2Cl)CC1  NCI-H1299 cells            nM                  1080
5  Cc1cc(Nc2ncc3c(=O)n(-c4c(F)cccc4Br)n4ccnc4c3n2)ccc1N1CCC(N(C)C)CC1  NCI-H1299 cells            nM                   270

Lookup: Which IC50 value belongs to CCc1cn2c(n1)c1nc(Nc3ccc(N4CCN(C)CC4)c(C)c3)ncc1c(=O)n2-c1c(Cl)cccc1Cl ?
Found: 161

Lookup: Record request: IC50 value, item C=CCn1c(=O)c2cnc(Nc3ccc(N4CCN(C)CC4)cc3)nc2n1-c1cccc(C(C)(C)O)n1
Found: 116

Lookup: Suppose we examine the molecule CN1Cc2cc(Nc3ncc4c(=O)n(-c5c(F)cccc5Cl)n5ccnc5c4n3)ccc2C(C)(C)C1 ; what IC50 value has been reported?
Found: 445

Lookup: What value of IC50 has been reported for the following molecule? Cc1cc(Nc2ncc3c(=O)n(-c4c(C)cccc4Cl)n4ccnc4c3n2)cc(C)c1N1CCN(C)CC1
Found: 802

Lookup: Need IC50, item Cc1cc(Nc2ncc3c(=O)n(-c4c(F)cccc4Cl)n4ccnc4c3n2)cc(F)c1N1CCN(C)CC1
Found: 376

Lookup: I have this molecule here, Cc1cc(Nc2ncc3c(=O)n(-c4c(F)cccc4Cl)n4ccnc4c3n2)cc(C)c1N1CCN(C)CC1 , and I need its recorded IC50.
Found: 555

Lookup: Which IC50 is listed for Cc1cn2c(n1)c1nc(Nc3ccc(N4CCN(C)CC4)c(Cl)c3)ncc1c(=O)n2-c1c(Cl)cccc1Cl ?
Found: 173

Lookup: Which IC50 reading was recorded for the molecule CN1CCN(c2ccc(Nc3ncc4c(=O)n(-c5c(Cl)cccc5Br)n5ccnc5c4n3)cc2Cl)CC1 ?
Found: 562

Lookup: Would you mind telling me what IC50 value was observed for Cc1cccc(F)c1-n1c(=O)c2cnc(Nc3ccc(N4CCN(C)CC4)c(Cl)c3)nc2c2nccn21 ?
Found: 1220

Lookup: IC50 for Cc1cc(Nc2ncc3c(=O)n(-c4c(F)cccc4Cl)n4ccnc4c3n2)ccc1N1CCN(C)CC1 ?
Found: 284
